Assay: circadian clock period modulators, cell-based, LOPAC library, luminescence reporter (AID 2774);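 note: values are relative to mean of DMSO wells on each plate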
Conditions: circadian reporter cells, at 7 µM, actives lie on both sides
Active and inactive are the calls of the source. The rule behind the calls is not given here.
Outcome codes: true (1) = active, false (0) = inactive

1) CNCCC(Oc1ccccc1OC)c1ccccc1 (configuration not stated) ... false (0)
2) NC(N)=NC(=O)c1nc(Cl)c(N2CCCCCC2)nc1N ... false (0)
3) C=C[C@H]1CN2CCC1C[C@@H]2[C@@H](O)c1ccnc2ccc(OC)cc12 (some centres not stated) ... false (0)
4) O=C(NCC1CCCCN1)c1cc(OCC(F)(F)F)ccc1OCC(F)(F)F (configuration not stated) ... false (0)
5) CSC(N)=NCCC[C@H](N)C(=O)O ... false (0)
6) C=C(C)C1CC=C(C(=O)O)CC1 (configuration not stated) ... false (0)
7) CCN(CC)C(=O)c1ccc(O)c(OC)c1 ... true (1)
8) CN1CCc2cccc3c2C1Cc1ccc(O)c(O)c1-3 (configuration not stated) ... false (0)
9) O=C(/C=C/c1ccc(O)c(O)c1)OCCc1ccccc1 ... false (0)
10) COc1ccc(/C=C/C(=O)Nc2ccccc2C(=O)O)cc1OC ... false (0)
11) CC(=O)[C@@]1(O)CC[C@H]2[C@@H]3CCC4=CC(=O)CC[C@]4(C)[C@H]3CC[C@@]21C ... false (0)
12) NCCCCCCNS(=O)(=O)c1cccc2c(Cl)cccc12 ... false (0)

All figures here come from PubChem BioAssay.
